A collection of compounds and their measured Population Fragmented Nuclei (%)
Tested on: Fibroblast
Protocol notes: Multiplex assay against human fibroblast
Assay type: toxicity, cell-based
Test settings: 24 h, 1 µM, compound concentration 1 uM, replicate 1
Record the value in %, omitting the unit from your answer.

C=CC(=O)Nc1cc2c(Nc3ccc(F)c(Cl)c3)ncnc2cc1OCCCN1CCOCC1.Cl.Cl [CANERTINIB DIHYDROCHLORIDE]; 26
Cc1cc(C)cc(-c2cnc3cc(Cl)c(-c4cccc(O)c4)cc3c2OCCCN)c1; 54

Turning now to a further record.
**Query** For the compound Cc1nc(-c2ccc(-c3ccc(C(=O)N4CCc5cc6c(cc54)C4(CCN(C)CC4)CO6)cc3)c(C)c2)no1 [SB-224289] , what Population Fragmented Nuclei (%) is on record?
**Result** 32
